- measurement_target: Voltage-gated L-type calcium channel (Homo sapiens, UniProt Q13936+Q13698+Q01668+O60840)
- protocol_description: Evaluated for the free energies of binding (delta G) (in the resting state (rs) of voltage-gated L-type [Ca2+] channel (VGCCs))
- Format: protein assay
Reported values of Binding energy for individual entries
Numbers only here, please. The scale is kcal/M.

Example molecules with recorded Binding energy:
# molecule, measurement_label, unit_abbreviation, measured
data = [
    ("COC(=O)C1=C(C)N=C(C)/C(=C(\\O)OC)C1c1cccc(C#N)c1 (stereo in doubt; form 1)", "Binding energy", "kcal/M", -9.71),
    ("COC(=O)C1=C(C)N=C(C)/C(=C(\\O)OC)C1c1cccc(F)c1 (stereo not given)", "Binding energy", "kcal/M", -11.58),
    ("COC(=O)C1=C(C)N=C(C)/C(=C(\\O)OC)C1c1ccccc1C (stereo not given)", "Binding energy", "kcal/M", -11.88),
]

# evaluate next
Sample COC(=O)C1=C(C)NC(C)=C([N+](=O)[O-])C1c1ccccc1C(F)(F)F (stereo in doubt; form 2) , system: Voltage-gated L-type calcium channel (Homo sapiens, UniProt Q13936+Q13698+Q01668+O60840). Its Binding energy is -9.7

###

- measurement_target: Voltage-gated L-type calcium channel (Homo sapiens, UniProt Q13936+Q13698+Q01668+O60840)
- protocol_description: Evaluated for the free energies of binding (delta G) (in the resting state (rs) of voltage-gated L-type [Ca2+] channel (VGCCs))
- Format: protein assay
measurement_label: Binding energy

# compound, Binding energy
rows = [
    ("COC(=O)C1=C(C)N=C(C)/C(=C(\\O)OC)C1c1ccc(F)cc1 (centres undefined)", "-10.175 kcal/M"),
    ("COC(=O)C1=C(C)N=C(C)/C(=C(\\O)OC)C1c1ccccc1I (centres undefined)", "-14.731 kcal/M"),
    ("COC(=O)C1=C(C)N=C(C)/C(=C(/O)OC)C1c1cccc(Cl)c1 (centres undefined)", "-12.685 kcal/M"),
    ("CO/C(O)=C1\\C(C)=NC(C)=C([N+](=O)[O-])C1c1ccccc1OC(F)F (centres undefined)", "-9.26 kcal/M"),
    ("CC1=CC(c2ccccc2C(F)(F)F)C([N+](=O)[O-])=C(C)N1 (stereo in doubt; form 1)", "-6.967 kcal/M"),
]

Just so you know, measured Binding energy for CC1=C([N+](=O)[O-])C(c2ccccc2OC(F)F)C([N+](=O)[O-])=C(C)N1 came out at -7.82 kcal/M

Just so you know, measured Binding energy for COC(=O)C1=C(C)N=C(C)/C(=C(\O)OC)C1c1cccc(OC)c1 (stereo in doubt; form 2) came out at -7.819 kcal/M

Just so you know, measured Binding energy for COC(=O)C1=C(C)N=C(C)/C(=C(\O)OC)C1c1ccc(C)cc1 (centres undefined) came out at -9.79 kcal/M

Just so you know, measured Binding energy for COC(=O)C1=C(C)N=C(C)/C(=C(\O)OC)C1c1ccccc1Cl (centres undefined) came out at -13.34 kcal/M

###

Reported values of Binding energy for individual entries
- measurement_target: Voltage-gated L-type calcium channel (Homo sapiens, UniProt Q13936+Q13698+Q01668+O60840)
- protocol_description: Evaluated for the free energies of binding (delta G) (in the resting state (rs) of voltage-gated L-type [Ca2+] channel (VGCCs))
- Format: protein assay
Numbers only here, please. The scale is kcal/M.

Example molecules with recorded Binding energy:
# molecule, Binding energy, kcal/M
measured = [
    ("COC(=O)C1=C(C)N=C(C)/C(=C(\\O)OC)C1c1cccc(C)c1 (stereo not given)", -9.93),
    ("COC(=O)C1=C(C)NC(C)=C([N+](=O)[O-])C1c1ccccc1OC(F)F (stereo not given)", -9.571),
    ("COC(=O)C1=C(C)N=C(C)/C(=C(\\O)OC)C1c1c(F)c(F)c(F)c(F)c1F (stereo not given)", -14.145),
]

Just so you know, measured Binding energy for COC(=O)C1=C(C)N=C(C)/C(=C(\O)OC)C1c1ccc(Cl)cc1 (stereo in doubt; form 1) came out at -8.209

Just so you know, measured Binding energy for COC(=O)C1=C(C)N=C(C)/C(=C(\O)OC)C1c1cccc(C#N)c1 (stereo in doubt; form 2) came out at -11.84

###

- measurement_target: Voltage-gated L-type calcium channel (Homo sapiens, UniProt Q13936+Q13698+Q01668+O60840)
- protocol_description: Free energy of binding (delta G) for inactivated state (is) of voltage-gated L-type [Ca2+] channel(VGCCs)
- Type: protein assay
Reported values of Binding energy for individual entries
Numbers only here, please. The scale is kcal/M.

Example compounds with recorded Binding energy:
# compound, Binding energy, kcal/M
measured = [
    ("COC(=O)C1=C(C)N=C(C)/C(=C(\\O)OC)C1c1cccc(OC)c1 (stereo in doubt; form 2)", -8.461),
    ("COC(=O)C1=C(C)N=C(C)/C(=C(\\O)OC)C1c1cccc(C#N)c1 (stereo in doubt; form 1)", -12.108),
    ("COC(=O)C1=C(C)NC(C)=C(C(=O)OC)C1c1ccccc1[N+](=O)[O-]", -13.184),
    ("COC(=O)C1=C(C)NC(C)=C(C(=O)OC)C1c1ccccc1", -10.387),
    ("CC1=C([N+](=O)[O-])C(c2ccccc2C(F)(F)F)C([N+](=O)[O-])=C(C)N1", -9.11),
    ("CC1=C([N+](=O)[O-])C(c2ccccc2OC(F)F)C([N+](=O)[O-])=C(C)N1", -8.66),
    ("CC1=CC(c2ccccc2OC(F)F)C([N+](=O)[O-])=C(C)N1 (stereo in doubt; form 1)", -7.783),
    ("CC1=CC(c2ccccc2OC(F)F)C([N+](=O)[O-])=C(C)N1 (stereo in doubt; form 2)", -8.28),
    ("CC1=CC(c2ccccc2C(F)(F)F)C([N+](=O)[O-])=C(C)N1 (stereo in doubt; form 2)", -7.74),
    ("COC(=O)C1=C(C)NC(C)=C([N+](=O)[O-])C1c1ccccc1OC(F)F (centres undefined)", -10.474),
]

# evaluate next
Just so you know, measured Binding energy for COC(=O)C1=C(C)NC(C)=C([N+](=O)[O-])C1c1ccccc1C(F)(F)F (stereo in doubt; form 1) came out at -10.296

###

- measurement_target: Voltage-gated L-type calcium channel (Homo sapiens, UniProt Q13936+Q13698+Q01668+O60840)
- protocol_description: Difference in free energies of binding (delta G) in the Resting state (rs) and inactivated state (is) of voltage-gated L-type [Ca2+] channel(VGCCs)
- Type: protein assay
Would you please tag the item true (1) when its Binding energy is -0.9 kcal/M or above, and false (0) when it is below?

Examples from the recorded data:
# molecule, assigned_class
data = [
    ("CC1=C([N+](=O)[O-])C(c2ccccc2C(F)(F)F)C([N+](=O)[O-])=C(C)N1", "true (1)"),
    ("CC1=CC(c2ccccc2C(F)(F)F)C([N+](=O)[O-])=C(C)N1 (stereo in doubt; form 1)", "true (1)"),
    ("CC1=CC(c2ccccc2C(F)(F)F)C([N+](=O)[O-])=C(C)N1 (stereo in doubt; form 2)", "true (1)"),
    ("COC(=O)C1=C(C)NC(C)=C([N+](=O)[O-])C1c1ccccc1C(F)(F)F (stereo in doubt; form 1)", "false (0)"),
]

Now turn to the next molecule.
Form field: Binding energy at least -0.9 kcal/M? Entry: COC(=O)C1=C(C)NC(C)=C([N+](=O)[O-])C1c1ccccc1C(F)(F)F (stereo in doubt; form 2) false (0)

###

- measurement_target: Voltage-gated L-type calcium channel (Homo sapiens, UniProt Q13936+Q13698+Q01668+O60840)
- protocol_description: Evaluated for the free energies of binding (delta G) (in the resting state (rs) of voltage-gated L-type [Ca2+] channel (VGCCs))
- Assay type: protein assay
Reported values of Binding energy for individual entries
Numbers only here, please. The scale is kcal/M.

Example compounds with recorded Binding energy:
# compound, unit_abbreviation, Binding energy
measured = [
    ("CC1=CC(c2ccccc2OC(F)F)C([N+](=O)[O-])=C(C)N1 (stereo in doubt; form 2)", "kcal/M", -7.86),
    ("COC(=O)C1=C(C)N=C(C)/C(=C(\\O)OC)C1c1ccccc1Br (stereo unspecified)", "kcal/M", -14.308),
    ("COC(=O)C1=C(C)N=C(C)/C(=C(\\O)OC)C1c1ccc(Cl)cc1 (stereo in doubt; form 2)", "kcal/M", -7.666),
    ("COC(=O)C1=C(C)N=C(C)/C(=C(\\O)OC)C1c1ccccc1C#N (stereo unspecified)", "kcal/M", -12.522),
    ("CC1=C([N+](=O)[O-])C(c2ccccc2C(F)(F)F)C([N+](=O)[O-])=C(C)N1", "kcal/M", -8.256),
]

# evaluate next
Just so you know, measured Binding energy for COC(=O)C1=C(C)NC(C)=C([N+](=O)[O-])C1c1ccccc1C(F)(F)F (stereo in doubt; form 1) came out at -8.8
